- System: cisplatin-resistant A2780 ovarian cancer cells
- protocol.details: MTT cytotoxicity, cisplatin-resistant A2780
- Format: cell-based
- measurement.setup: A2780, MTT, 72 h
reported.endpoint: pIC50
Lab note: report pIC50 as minus log10 of the concentration in molar units, number only.

CCCCCCCCCc1ccnc(-c2cc(CCCCCCCCC)ccn2)c1.CCCCCCCCCc1ccnc(-c2cc(CCCCCCCCC)ccn2)c1.CCCCCCCCCc1ccnc(-c2cc(CCCCCCCCC)ccn2)c1.F[P-](F)(F)(F)(F)F.F[P-](F)(F)(F)(F)F.F[P-](F)(F)(F)(F)F.[Co+3] [complex (VIII), [Co^III(4,4′-(C9H19)2-Bpy)3](PF6)3] :: 4.54
F[P-](F)(F)(F)(F)F.F[P-](F)(F)(F)(F)F.F[P-](F)(F)(F)(F)F.[Co+3].c1ccc(-c2ccccn2)nc1.c1ccc(-c2ccccn2)nc1.c1ccc(-c2ccccn2)nc1 [complex (VI), [Co^III(N^N)3](PF6)3] :: 4.27
Cc1ccnc(-c2cc(C)ccn2)c1.Cc1ccnc(-c2cc(C)ccn2)c1.Cc1ccnc(-c2cc(C)ccn2)c1.F[P-](F)(F)(F)(F)F.F[P-](F)(F)(F)(F)F.F[P-](F)(F)(F)(F)F.[Co+3] [complex (IV), [Co^III(4,4′-Me2-Bpy)3.](PF6)3] :: 4.97
COc1ccnc(-c2cc(OC)ccn2)c1.COc1ccnc(-c2cc(OC)ccn2)c1.COc1ccnc(-c2cc(OC)ccn2)c1.F[P-](F)(F)(F)(F)F.F[P-](F)(F)(F)(F)F.F[P-](F)(F)(F)(F)F.[Co+3] [complex (VII), [Co^III(4,4′-(OMe)2-Bpy)3](PF6)3] :: 4.57

// switching to the query compound
Task: Annotate the compound F[P-](F)(F)(F)(F)F.F[P-](F)(F)(F)(F)F.[Co+2].c1ccc(-c2ccccn2)nc1.c1ccc(-c2ccccn2)nc1.c1ccc(-c2ccccn2)nc1 [complex (V), [Co^II(N^N)3](PF6)2] with its measured pIC50.
Result: 4.50
